- Test system: Rabbit Smooth Muscle
- Experiment: Cell adhesion to peptide-coated wells compared with thrombospondin
- Type: cell-based
- Assay conditions: two micrograms of peptide dried on well, 200,000 cells per well, 30 minutes at 37°C, relative to thrombospondin
Positions of bridges follow the written chain, without caps; N, C: chain ends. Residues, ends and D or L forms follow the SMILES beside them.
Reported Percent of TSP-adherent Cells values for a set of compounds

Compound	Percent of TSP-adherent Cells / %
CC(C)[C@@H]1NC(=O)[C@H](CO)NC(=O)[C@@H](N)CSSC[C@@H](C(=O)NCC(=O)O)NC(=O)[C@H]([C@@H](C)O)NC1=O [Cyclic CSVTCG (SEQ ID NO:1), cyclic CSVTCG-Acid] (H-CSVTCG-OH; disulfide 1-5)	43
CC(C)[C@H](NC(=O)[C@H](CO)NC(=O)[C@@H](N)CS)C(=O)N[C@H](C(=O)N[C@@H](CS)C(=O)N[C@@H](CCCNC(=N)N)C(=O)O)[C@@H](C)O [CSVTCR (SEQ ID NO:2), CSVTCR] (H-CSVTCR-OH)	159
CC(C)[C@H](N)C(=O)N[C@@H](CS)C(=O)N[C@H](C(=O)NCC(=O)N[C@@H](CO)C(=O)N[C@@H](CS)C(=O)O)[C@@H](C)O [VCTGSC, reference compound] (H-VCTGSC-OH)	17
CC(C)[C@H](NC(=O)[C@H](CS)NC(=O)[C@@H](N)[C@@H](C)O)C(=O)N[C@@H](CS)C(=O)NCC(=O)N[C@@H](CO)C(=O)O [TCVCGS, reference compound] (H-TCVCGS-OH)	8

---

- Test system: Rabbit Smooth Muscle
- Experiment: Cell adhesion to peptide-coated wells compared with thrombospondin
- Assay type: cell-based
- Assay conditions: two micrograms of peptide dried on well, 200,000 cells per well, 30 minutes at 37°C, relative to thrombospondin
- Procedure: In this example a series of peptides were tested to determine the abilities of the peptides to bind various cells as compared to thrombospondin. It is believed that thrombospondin acts in metastasis through its adhesive properties. […] The cell types evaluated were B16F10 mouse melanoma cells, A549 human lung adrenocarcinoma cells, bovine aortic smooth muscle cells, and rabbit smooth muscle cells. […]
Residues, ends and D or L forms follow the SMILES beside them.
Listed below: Percent of TSP-adherent Cells values for each entry.
Measurement kind: Percent of TSP-adherent Cells (%)

Compound	System tested	Measurement kind	Value units	Observed value
CC(C)[C@H](NC(=O)[C@H](CCCNC(=N)N)NC(=O)[C@@H](N)CS)C(=O)N[C@H](C(=O)N[C@@H](CS)C(=O)NCC(=O)O)[C@@H](C)O [CRVTCG (SEQ ID NO:5), CRVTCG] (H-CRVTCG-OH)	Rabbit Smooth Muscle	Percent of TSP-adherent Cells	%	82
C[C@@H](O)[C@H](NC(=O)[C@H](CO)NC(=O)[C@@H](N)CS)C(=O)N[C@@H](CO)C(=O)N[C@@H](CS)C(=O)NCC(=O)O [CSTSCG (SEQ ID NO:4), CSTSCG] (H-CSTSCG-OH)	Rabbit Smooth Muscle	Percent of TSP-adherent Cells	%	22
CC(C)[C@H](NC(=O)[C@H](CO)NC(=O)[C@@H](N)CS)C(=O)N[C@H](C(=O)N[C@@H](CS)C(=O)NCC(=O)O)[C@@H](C)O [CSVTCG (SEQ ID NO:1), CSVTCG] (H-CSVTCG-OH)	Rabbit Smooth Muscle	Percent of TSP-adherent Cells	%	44
C[C@@H](O)[C@H](NC(=O)[C@H](CO)NC(=O)[C@@H](N)CS)C(=O)N[C@@H](CO)C(=O)N[C@@H](CS)C(=O)N[C@@H](CCCNC(=N)N)C(=O)O [CSTSCR (SEQ ID NO:3), CSTSCR] (H-CSTSCR-OH)	Rabbit Smooth Muscle	Percent of TSP-adherent Cells	%	82
